target.or.system: cellular BACE1 in CHOK1-huAPP cells
assay.explanation: cell-based or functional assay
// reported Max. % inhibition per item
metric.name: Max. % inhibition

• 2H8.41 (antibody, human IgG1, V domains shown, human IgG1/kappa; also called 2H8_HCvar5 + 2H8_LCvar7) VH: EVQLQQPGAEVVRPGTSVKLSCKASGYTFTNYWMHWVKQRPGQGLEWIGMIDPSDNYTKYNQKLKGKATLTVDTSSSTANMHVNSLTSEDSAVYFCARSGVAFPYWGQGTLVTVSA VL: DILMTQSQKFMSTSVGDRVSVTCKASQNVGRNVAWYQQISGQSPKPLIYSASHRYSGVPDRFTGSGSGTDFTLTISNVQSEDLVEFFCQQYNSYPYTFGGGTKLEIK = 86%
• 2H8.05 (antibody, human IgG1, V domains shown, human IgG1/kappa; also called 2H8_HCvar5 + 2H8_LC) VH: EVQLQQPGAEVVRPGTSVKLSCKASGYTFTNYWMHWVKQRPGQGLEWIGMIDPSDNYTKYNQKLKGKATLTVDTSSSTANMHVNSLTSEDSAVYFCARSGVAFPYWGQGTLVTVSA VL: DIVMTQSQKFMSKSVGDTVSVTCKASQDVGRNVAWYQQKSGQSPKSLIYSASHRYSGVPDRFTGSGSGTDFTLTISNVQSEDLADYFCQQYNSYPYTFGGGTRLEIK = 87%
• 2H8.42 (antibody, human IgG1, V domains shown, human IgG1/kappa; also called 2H8_HCvar6 + 2H8_LCvar7) VH: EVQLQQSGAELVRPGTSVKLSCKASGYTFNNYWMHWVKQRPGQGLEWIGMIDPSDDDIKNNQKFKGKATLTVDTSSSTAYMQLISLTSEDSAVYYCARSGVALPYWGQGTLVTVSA VL: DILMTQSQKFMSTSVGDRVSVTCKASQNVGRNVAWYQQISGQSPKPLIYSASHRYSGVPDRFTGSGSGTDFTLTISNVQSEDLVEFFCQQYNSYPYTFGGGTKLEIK = 97%
• 2H8.37 (antibody, human IgG1, V domains shown, human IgG1/kappa; also called 2H8_HC + 2H8_LCvar7) VH: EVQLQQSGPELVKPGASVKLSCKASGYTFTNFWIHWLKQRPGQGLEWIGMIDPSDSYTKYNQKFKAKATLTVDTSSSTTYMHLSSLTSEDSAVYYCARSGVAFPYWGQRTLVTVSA VL: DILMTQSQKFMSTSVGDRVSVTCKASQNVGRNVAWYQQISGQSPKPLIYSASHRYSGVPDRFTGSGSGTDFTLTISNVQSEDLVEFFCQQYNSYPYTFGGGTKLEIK = 93%
• 2H8.39 (antibody, human IgG1, V domains shown, human IgG1/kappa; also called 2H8_HCvar3 + 2H8_LCvar7) VH: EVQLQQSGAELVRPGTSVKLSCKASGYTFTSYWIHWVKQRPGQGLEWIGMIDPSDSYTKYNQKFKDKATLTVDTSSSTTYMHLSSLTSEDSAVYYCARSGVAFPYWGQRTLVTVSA VL: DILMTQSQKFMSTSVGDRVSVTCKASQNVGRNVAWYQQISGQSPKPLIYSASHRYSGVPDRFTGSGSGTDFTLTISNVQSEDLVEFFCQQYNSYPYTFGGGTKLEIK = 86%
